These measurements were taken from the NIST ThermoML archive (doi:10.1016/j.jct.2010.05.011).

Assignment: determine reported mass density for the given compounds.
- experimental setup: 338.15 K; 101.33 kPa; Liquid; Vibrating tube method
Give the number; kg/m3 is assumed, so skip it.

// mass density lookup, key: COS(=O)(=O)[O-].C[n+]1ccccc1 [1-methylpyridinium methylsulfate]
1318.09

// mass density lookup, key: COS(=O)(=O)[O-].Cc1ccc[n+](C)c1 [1,3-dimethylpyridinium methyl sulfate]
1275.82

// mass density lookup, key: CCOS(=O)(=O)[O-].CCc1cccc[n+]1CC [1,2-diethylpyridinium ethylsulfate]
1193.6

// mass density lookup, key: CCc1cccc[n+]1C.COS(=O)(=O)[O-] [2-ethyl-1-methylpyridinium methyl sulfate]
1258.1
